# procedureDetails: Literature half-life of PCB52 following intravenous administration in male rats (Pu et al.)
# recordedConditions: rat, in vivo, concentration–time data of Pu et al., read-out: half-life when Pu et al. data are fitted to a two-compartmental PK model
experimentalReadout: half-life

Which value of half-life has been reported for Clc1ccc(Cl)c(-c2cc(Cl)ccc2Cl)c1 in the records?
36 to 48 h
